# system.under.test: SST5 (Homo sapiens, UniProt P35346)
# Sequence (P35346 whole entry): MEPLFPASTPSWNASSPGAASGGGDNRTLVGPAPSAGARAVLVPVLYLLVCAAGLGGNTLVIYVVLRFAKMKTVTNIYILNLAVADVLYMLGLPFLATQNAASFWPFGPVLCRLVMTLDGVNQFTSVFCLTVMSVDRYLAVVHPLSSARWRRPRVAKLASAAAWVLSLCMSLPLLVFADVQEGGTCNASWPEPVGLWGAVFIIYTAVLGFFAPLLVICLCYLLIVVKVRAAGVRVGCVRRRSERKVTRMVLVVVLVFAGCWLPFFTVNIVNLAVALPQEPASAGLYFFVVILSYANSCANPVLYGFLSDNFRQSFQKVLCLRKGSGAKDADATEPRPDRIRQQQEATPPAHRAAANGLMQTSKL
# protocol.description: Hit Hunter cAMP XS+ assay, SST5 activation via Gi (reduction of forskolin-stimulated cAMP)
# Assay type: cell-based
# setup.conditions: reduction of forskolin-stimulated cAMP; 4-parameter logistic fit; read-out: SST5 pEC50 (converted)
*1 amine or outer side, *2 acyl side, *3 side chain or, on linkers, in order; H or OH if unused. Where a SMILES comes first, the peptide text is derived from it. Side-chain parts run from the residue outwards. [ ]: non-standard residue; d: D form. The star is where a group is joined. Ala(piperazin-1-yl) = N[C@@H](CN1CCNCC1)C(=O)O; Morpholine(3S-CO) = O=C(O)[C@@H]1COCCN1; Ethylenediamine = C(CN[*:2])N[*:1]; d(hPhe) = N[C@H](CCc1ccccc1)C(=O)O; Hyp = O=C(O)[C@@H]1C[C@@H](O)CN1; hPhe = N[C@@H](CCc1ccccc1)C(=O)O; 3Pal = N[C@@H](Cc1cccnc1)C(=O)O; Cyclohexylmethyl = C1CCC(C*)CC1; Tic = O=C(O)[C@@H]1Cc2ccccc2CN1; CO = O=C([*:1])[*:2]; Bn = c1ccc(C*)cc1
attribute.measured: EC50 (nM)
Numbers only, in nM.

NCCNC(=O)O[C@@H]1C[C@H]2C(=O)N[C@@H](CCc3ccccc3)C(=O)N[C@H](Cc3c[nH]c4ccccc34)C(=O)N[C@@H](CN3CCNCC3)C(=O)N[C@@H](Cc3ccc(OCC4CCCCC4)cc3)C(=O)N[C@@H](Cc3cccnc3)C(=O)N2C1 [Example 52] (cyclo([3Pal][Hyp]([CO-Ethylenediamine])[hPhe][dW][Ala(piperazin-1-yl)]Y(Cyclohexylmethyl)))	0.158

Given item O=C1N[C@@H](Cc2ccc(OCc3ccccc3)cc2)C(=O)N2Cc3ccccc3C[C@H]2C(=O)N2CCOC[C@H]2C(=O)N[C@H](CCc2ccccc2)C(=O)N[C@H](Cc2c[nH]c3ccccc23)C(=O)N[C@H]1CN1CCNCC1 [Example 61] (cyclo([Tic][Morpholine(3S-CO)][d(hPhe)][dW][Ala(piperazin-1-yl)]Y(Bn))) , the value recorded as its EC50 is 31.6

---

For each record, write down the corresponding Emax.
# system.under.test: SST5 (Homo sapiens, UniProt P35346)
# protocol.description: Hit Hunter cAMP XS+ assay, SST5 activation via Gi (reduction of forskolin-stimulated cAMP)
# Assay type: cell-based
# setup.conditions: read-out: SST5 (EMax)
*1 amine or outer side, *2 acyl side, *3 side chain or, on linkers, in order; H or OH if unused. Where a SMILES comes first, the peptide text is derived from it. Side-chain parts run from the residue outwards. [ ]: non-standard residue; d: D form. The star is where a group is joined. Ala(piperidin-4-yl) = O=C([C@H](CC1CCN([*:3])CC1)N[*:1])[*:2]; Ala(piperazin-1-yl) = N[C@@H](CN1CCNCC1)C(=O)O; Tyr(Ph) = N[C@@H](Cc1ccc(Oc2ccccc2)cc1)C(=O)O; Phe(3-Cl) = N[C@@H](Cc1cccc(Cl)c1)C(=O)O; Morpholine(3S-CO) = O=C(O)[C@@H]1COCCN1; Ethylenediamine = C(CN[*:2])N[*:1]; d(hPhe) = N[C@H](CCc1ccccc1)C(=O)O; Hyp = O=C(O)[C@@H]1C[C@@H](O)CN1; hPhe = N[C@@H](CCc1ccccc1)C(=O)O; 3Pal = N[C@@H](Cc1cccnc1)C(=O)O; Cyclohexylmethyl = C1CCC(C*)CC1; Tic = O=C(O)[C@@H]1Cc2ccccc2CN1; Phg = N[C@H](C(=O)O)c1ccccc1; X9 = O=C(C1CNCCN1[*:1])[*:2]; Pip = O=C(O)[C@@H]1CCCCN1; X6 = Clc1cccc(Cl)c1C*; CO = O=C([*:1])[*:2]; Bn = c1ccc(C*)cc1
Answers are plain numbers, in %.

Consider the following illustrative entries.
NCCNC(=O)O[C@@H]1C[C@H]2C(=O)N[C@@H](CCc3ccccc3)C(=O)N[C@H](Cc3c[nH]c4ccccc34)C(=O)N[C@@H](CC3CCNCC3)C(=O)N[C@@H](Cc3ccc(Oc4ccccc4)cc3)C(=O)N[C@@H](Cc3cccnc3)C(=O)N2C1 [Example 67] (cyclo([3Pal][Hyp]([CO-Ethylenediamine])[hPhe][dW][Ala(piperidin-4-yl)][Tyr(Ph)]))	104
NCCNC(=O)O[C@@H]1C[C@H]2C(=O)N[C@@H](CCc3ccccc3)C(=O)N[C@H](Cc3c[nH]c4ccccc34)C(=O)N[C@@H](CC3CCNCC3)C(=O)N[C@@H](Cc3ccc(OCC4CCCCC4)cc3)C(=O)N3Cc4ccccc4C[C@H]3C(=O)N2C1 [Example 44] (cyclo([Hyp]([CO-Ethylenediamine])[hPhe][dW][Ala(piperidin-4-yl)]Y(Cyclohexylmethyl)[Tic]))	105
NCCNC(=O)O[C@@H]1C[C@H]2C(=O)N[C@@H](c3ccccc3)C(=O)N[C@H](Cc3c[nH]c4ccccc34)C(=O)N[C@@H](CC3CCNCC3)C(=O)N[C@@H](Cc3ccc(OCc4ccccc4)cc3)C(=O)N[C@@H](Cc3ccccc3)C(=O)N2C1 [Example 1] (cyclo(F[Hyp]([CO-Ethylenediamine])[Phg][dW][Ala(piperidin-4-yl)]Y(Bn)))	98.6
NCCCC[C@@H]1NC(=O)[C@@H](Cc2c[nH]c3ccccc23)NC(=O)[C@H](c2ccccc2)NC(=O)[C@@H]2C[C@@H](OC(=O)NCCN)CN2C(=O)[C@H](Cc2ccccc2)NC(=O)[C@H](Cc2ccc(OCc3ccccc3)cc2)NC1=O [pasireotide, reference compound] (cyclo([Hyp]([CO-Ethylenediamine])[Phg][dW]KY(Bn)F))	102
NCCNC(=O)O[C@@H]1C[C@H]2C(=O)N[C@@H](CCc3ccccc3)C(=O)N[C@H](Cc3c[nH]c4ccccc34)C(=O)N[C@@H](CC3CCNCC3)C(=O)N[C@@H](Cc3ccc(OCc4ccccc4)cc3)C(=O)N[C@@H](Cc3cccc(Cl)c3)C(=O)N2C1 [Example 41] (cyclo([Hyp]([CO-Ethylenediamine])[hPhe][dW][Ala(piperidin-4-yl)]Y(Bn)[Phe(3-Cl)]))	104
NCCNC(=O)O[C@@H]1C[C@H]2C(=O)N[C@@H](CCc3ccccc3)C(=O)N[C@H](Cc3c[nH]c4ccccc34)C(=O)N[C@@H](CN3CCNCC3)C(=O)N[C@@H](Cc3ccc(OCc4ccccc4)cc3)C(=O)N[C@@H](Cc3cccnc3)C(=O)N2C1 [Example 14] (cyclo([3Pal][Hyp]([CO-Ethylenediamine])[hPhe][dW][Ala(piperazin-1-yl)]Y(Bn)))	96.7
NCCNC(=O)O[C@@H]1C[C@H]2C(=O)N[C@@H](c3ccccc3)C(=O)N[C@H](Cc3c[nH]c4ccccc34)C(=O)N[C@@H](CC3CCNCC3)C(=O)N[C@@H](Cc3ccc(OCc4ccccc4)cc3)C(=O)N[C@@H](Cc3cccc(Cl)c3)C(=O)N2C1 [Example 7] (cyclo([Hyp]([CO-Ethylenediamine])[Phg][dW][Ala(piperidin-4-yl)]Y(Bn)[Phe(3-Cl)]))	102
NCCNC(=O)O[C@@H]1C[C@H]2C(=O)N[C@@H](CCc3ccccc3)C(=O)N[C@H](Cc3c[nH]c4ccccc34)C(=O)N[C@@H](CN3CCNCC3)C(=O)N[C@@H](Cc3ccc(OCc4ccccc4)cc3)C(=O)N3CCCC[C@H]3C(=O)N2C1 [Example 69] (cyclo([Hyp]([CO-Ethylenediamine])[hPhe][dW][Ala(piperazin-1-yl)]Y(Bn)[Pip]))	103

For every item below, please supply its Emax.
1. O=C1N[C@@H](Cc2ccc(OCc3ccccc3)cc2)C(=O)N2Cc3ccccc3C[C@H]2C(=O)N2CCOC[C@H]2C(=O)N[C@H](CCc2ccccc2)C(=O)N[C@H](Cc2c[nH]c3ccccc23)C(=O)N[C@H]1CC1CCNCC1 [Example 62] (cyclo([Tic][Morpholine(3S-CO)][d(hPhe)][dW][Ala(piperidin-4-yl)]Y(Bn)))
2. O=C1N[C@@H](CCc2ccccc2)C(=O)N[C@H](Cc2c[nH]c3ccccc23)C(=O)N[C@@H](CN2CCNCC2)C(=O)N[C@@H](Cc2ccc(OCc3ccccc3)cc2)C(=O)N2Cc3ccccc3C[C@H]2C(=O)N2CCNCC12 (some centres unmarked) [Example 65] (cyclo([Tic][X9][hPhe][dW][Ala(piperazin-1-yl)]Y(Bn)))
3. NCCNC(=O)O[C@@H]1C[C@H]2C(=O)N[C@@H](CCc3ccccc3)C(=O)N[C@H](Cc3c[nH]c4ccccc34)C(=O)N[C@@H](CC3CCNCC3)C(=O)N[C@@H](Cc3ccc(OCc4c(Cl)cccc4Cl)cc3)C(=O)N[C@@H](Cc3cccnc3)C(=O)N2C1 [Example 47] (cyclo([3Pal][Hyp]([CO-Ethylenediamine])[hPhe][dW][Ala(piperidin-4-yl)]Y(X6)))

stdout:
1. 102
2. 99.4
3. 108
